Every entry's value here was drawn from BigSolDB 2.1.

- Conditions: in sec-butanol, 313.15 K
Assay metric: solubility (mole fraction)
// print number alone

Exercise: Please look at this compound and report its solubility (mole fraction): `COc1ccc(Cl)cc1C(=O)NCCc1ccc(S(=O)(=O)NC(=O)NC2CCCCC2)cc1`
Key: 0.000365

###

- Conditions: in acetone, 308.15 K
Assay metric: solubility (mole fraction)
// print number alone

Exercise: Please look at this compound and report its solubility (mole fraction): `COc1ccc(Cl)cc1C(=O)NCCc1ccc(S(=O)(=O)NC(=O)NC2CCCCC2)cc1`
Key: 0.00134

###

- Conditions: in methyl acetate, 318.15 K
Assay metric: solubility (mole fraction)
// print number alone

Exercise: Please look at this molecule and report its solubility (mole fraction): `COc1ccc(Cl)cc1C(=O)NCCc1ccc(S(=O)(=O)NC(=O)NC2CCCCC2)cc1`
Key: 0.000629

###

- Conditions: in acetone, 288.15 K
Assay metric: solubility (mole fraction)

Exercise: Please look at this compound and report its solubility (mole fraction): `COc1ccc(Cl)cc1C(=O)NCCc1ccc(S(=O)(=O)NC(=O)NC2CCCCC2)cc1`
Key: 0.000568

###

- Conditions: in ethanol, 283.15 K
Assay metric: solubility (mole fraction)
// print number alone

Exercise: Please look at this molecule and report its solubility (mole fraction): `COc1ccc(Cl)cc1C(=O)NCCc1ccc(S(=O)(=O)NC(=O)NC2CCCCC2)cc1`
Key: 0.000108

###

- Conditions: in acetonitrile, 283.15 K
Assay metric: solubility (mole fraction)
// print number alone

Exercise: Please look at this compound and report its solubility (mole fraction): `COc1ccc(Cl)cc1C(=O)NCCc1ccc(S(=O)(=O)NC(=O)NC2CCCCC2)cc1`
Key: 5.25e-05

###

- Conditions: in ethyl acetate, 318.15 K
Assay metric: solubility (mole fraction)
// print number alone

Exercise: Please look at this compound and report its solubility (mole fraction): `COc1ccc(Cl)cc1C(=O)NCCc1ccc(S(=O)(=O)NC(=O)NC2CCCCC2)cc1`
Key: 0.000486

###

- Conditions: in methanol, 313.15 K
Assay metric: solubility (mole fraction)
// print number alone

Exercise: Please look at this compound and report its solubility (mole fraction): `COc1ccc(Cl)cc1C(=O)NCCc1ccc(S(=O)(=O)NC(=O)NC2CCCCC2)cc1`
Key: 0.000695

###

- Conditions: in n-propanol, 298.15 K
Assay metric: solubility (mole fraction)

Exercise: Please look at this compound and report its solubility (mole fraction): `COc1ccc(Cl)cc1C(=O)NCCc1ccc(S(=O)(=O)NC(=O)NC2CCCCC2)cc1`
Key: 0.000225

###

- Conditions: in n-propanol, 303.15 K
Assay metric: solubility (mole fraction)
// print number alone

Exercise: Please look at this compound and report its solubility (mole fraction): `COc1ccc(Cl)cc1C(=O)NCCc1ccc(S(=O)(=O)NC(=O)NC2CCCCC2)cc1`
Key: 0.000286

###

- Conditions: in methanol, 308.15 K
Assay metric: solubility (mole fraction)
// print number alone

Exercise: Please look at this molecule and report its solubility (mole fraction): `COc1ccc(Cl)cc1C(=O)NCCc1ccc(S(=O)(=O)NC(=O)NC2CCCCC2)cc1`
Key: 0.000488

###

- Conditions: in methyl acetate, 308.15 K
Assay metric: solubility (mole fraction)
// print number alone

Exercise: Please look at this compound and report its solubility (mole fraction): `COc1ccc(Cl)cc1C(=O)NCCc1ccc(S(=O)(=O)NC(=O)NC2CCCCC2)cc1`
Key: 0.000372

###

- Conditions: in methanol, 293.15 K
Assay metric: solubility (mole fraction)
// print number alone

Exercise: Please look at this molecule and report its solubility (mole fraction): `COc1ccc(Cl)cc1C(=O)NCCc1ccc(S(=O)(=O)NC(=O)NC2CCCCC2)cc1`
Key: 0.00021

###

- Conditions: in MIBK, 308.15 K
Assay metric: solubility (mole fraction)
// print number alone

Exercise: Please look at this compound and report its solubility (mole fraction): `COc1ccc(Cl)cc1C(=O)NCCc1ccc(S(=O)(=O)NC(=O)NC2CCCCC2)cc1`
Key: 0.000529

###

- Conditions: in methanol, 283.15 K
Assay metric: solubility (mole fraction)
// print number alone

Exercise: Please look at this compound and report its solubility (mole fraction): `COc1ccc(Cl)cc1C(=O)NCCc1ccc(S(=O)(=O)NC(=O)NC2CCCCC2)cc1`
Key: 0.000124

###

- Conditions: in methanol, 323.15 K
Assay metric: solubility (mole fraction)
// print number alone

Exercise: Please look at this compound and report its solubility (mole fraction): `COc1ccc(Cl)cc1C(=O)NCCc1ccc(S(=O)(=O)NC(=O)NC2CCCCC2)cc1`
Key: 0.00143

###

- Conditions: in methyl acetate, 303.15 K
Assay metric: solubility (mole fraction)

Exercise: Please look at this compound and report its solubility (mole fraction): `COc1ccc(Cl)cc1C(=O)NCCc1ccc(S(=O)(=O)NC(=O)NC2CCCCC2)cc1`
Key: 0.000296

###

- Conditions: in ethyl acetate, 308.15 K
Assay metric: solubility (mole fraction)
// print number alone

Exercise: Please look at this compound and report its solubility (mole fraction): `COc1ccc(Cl)cc1C(=O)NCCc1ccc(S(=O)(=O)NC(=O)NC2CCCCC2)cc1`
Key: 0.00029

###

- Conditions: in ethanol, 303.15 K
Assay metric: solubility (mole fraction)
// print number alone

Exercise: Please look at this molecule and report its solubility (mole fraction): `COc1ccc(Cl)cc1C(=O)NCCc1ccc(S(=O)(=O)NC(=O)NC2CCCCC2)cc1`
Key: 0.000316

###

- Conditions: in ethyl acetate, 283.15 K
Assay metric: solubility (mole fraction)
// print number alone

Exercise: Please look at this compound and report its solubility (mole fraction): `COc1ccc(Cl)cc1C(=O)NCCc1ccc(S(=O)(=O)NC(=O)NC2CCCCC2)cc1`
Key: 9.01e-05

###

- Conditions: in acetone, 313.15 K
Assay metric: solubility (mole fraction)

Exercise: Please look at this compound and report its solubility (mole fraction): `COc1ccc(Cl)cc1C(=O)NCCc1ccc(S(=O)(=O)NC(=O)NC2CCCCC2)cc1`
Key: 0.00171

###

- Conditions: in MIBK, 323.15 K
Assay metric: solubility (mole fraction)
// print number alone

Exercise: Please look at this molecule and report its solubility (mole fraction): `COc1ccc(Cl)cc1C(=O)NCCc1ccc(S(=O)(=O)NC(=O)NC2CCCCC2)cc1`
Key: 0.000908

###

- Conditions: in MIBK, 283.15 K
Assay metric: solubility (mole fraction)
// print number alone

Exercise: Please look at this molecule and report its solubility (mole fraction): `COc1ccc(Cl)cc1C(=O)NCCc1ccc(S(=O)(=O)NC(=O)NC2CCCCC2)cc1`
Key: 0.000198

###

- Conditions: in n-butanol, 293.15 K
Assay metric: solubility (mole fraction)
// print number alone

Exercise: Please look at this compound and report its solubility (mole fraction): `COc1ccc(Cl)cc1C(=O)NCCc1ccc(S(=O)(=O)NC(=O)NC2CCCCC2)cc1`
Key: 0.000242

###

- Conditions: in n-propanol, 283.15 K
Assay metric: solubility (mole fraction)
// print number alone

Exercise: Please look at this molecule and report its solubility (mole fraction): `COc1ccc(Cl)cc1C(=O)NCCc1ccc(S(=O)(=O)NC(=O)NC2CCCCC2)cc1`
Key: 0.0001

###

- Conditions: in isopropanol, 323.15 K
Assay metric: solubility (mole fraction)
// print number alone

Exercise: Please look at this molecule and report its solubility (mole fraction): `COc1ccc(Cl)cc1C(=O)NCCc1ccc(S(=O)(=O)NC(=O)NC2CCCCC2)cc1`
Key: 0.000934

###

- Conditions: in isopropanol, 308.15 K
Assay metric: solubility (mole fraction)

Exercise: Please look at this molecule and report its solubility (mole fraction): `COc1ccc(Cl)cc1C(=O)NCCc1ccc(S(=O)(=O)NC(=O)NC2CCCCC2)cc1`
Key: 0.000271

###

- Conditions: in n-butanol, 313.15 K
Assay metric: solubility (mole fraction)
// print number alone

Exercise: Please look at this compound and report its solubility (mole fraction): `COc1ccc(Cl)cc1C(=O)NCCc1ccc(S(=O)(=O)NC(=O)NC2CCCCC2)cc1`
Key: 0.000646

###

- Conditions: in n-propanol, 308.15 K
Assay metric: solubility (mole fraction)

Exercise: Please look at this molecule and report its solubility (mole fraction): `COc1ccc(Cl)cc1C(=O)NCCc1ccc(S(=O)(=O)NC(=O)NC2CCCCC2)cc1`
Key: 0.000381

###

- Conditions: in acetone, 303.15 K
Assay metric: solubility (mole fraction)

Exercise: Please look at this compound and report its solubility (mole fraction): `COc1ccc(Cl)cc1C(=O)NCCc1ccc(S(=O)(=O)NC(=O)NC2CCCCC2)cc1`
Key: 0.00109

###

- Conditions: in acetonitrile, 293.15 K
Assay metric: solubility (mole fraction)
// print number alone

Exercise: Please look at this compound and report its solubility (mole fraction): `COc1ccc(Cl)cc1C(=O)NCCc1ccc(S(=O)(=O)NC(=O)NC2CCCCC2)cc1`
Key: 9.85e-05
